- System: biotinyl-Trp-oxazolone
- test: self-aminoacylation, catalytic enhancement (BWO) (fold over background); higher = more active; k-Seq, kA / k0A0; sequences stand for … in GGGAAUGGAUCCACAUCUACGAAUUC…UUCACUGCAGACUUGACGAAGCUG
Fewer inactive variants are shown than the library holds.
Give measured self-aminoacylation for each item. Keep answers brief.
One number for each entry.

Example entries and their recorded answers appear below.
record_sequence: AUGUCUGCUAAUAGUCGCAAG [Fam3.1 aminoacylation ribozyme variant]
assayed_system: biotinyl-Trp-oxazolone
self-aminoacylation: 9.53

record_sequence: CUACAUCAAACAAUCGGUCUG [Fam1A.1 aminoacylation ribozyme variant]
assayed_system: biotinyl-Trp-oxazolone
self-aminoacylation: 1.41

record_sequence: CCACCCUUCAAGGAAUCGGUC [Fam1B.1 aminoacylation ribozyme variant]
assayed_system: biotinyl-Trp-oxazolone
self-aminoacylation: 4

record_sequence: AUUAACCCGGUCAUCGAGUGA [Fam2.1 aminoacylation ribozyme variant]
assayed_system: biotinyl-Trp-oxazolone
self-aminoacylation: 9.1

record_sequence: AUGUUUACUAAUAGUCGCAAG [Fam3.1 aminoacylation ribozyme variant]
assayed_system: biotinyl-Trp-oxazolone
self-aminoacylation: 2.07

record_sequence: AUUCACCUAGGUCAUACGGUG [Fam2.2 aminoacylation ribozyme variant]
assayed_system: biotinyl-Trp-oxazolone
self-aminoacylation: 6.75

Parameters: items (list). Returns: self-aminoacylation for each item.
1. AGUACUCUGGUCAUCGAGUGA [Fam2.1 aminoacylation ribozyme variant]
2. AUUCACCUCGAUCAUCGGGUG [Fam2.2 aminoacylation ribozyme variant]
3. CCACUCUUCAAUCAAUCGGUC [Fam1B.1 aminoacylation ribozyme variant]
4. CUACUUCCAGCAAUCGGUCUG [Fam1A.1 aminoacylation ribozyme variant]
5. AUUACCCUGGUUAUCGAGUAA [Fam2.1 aminoacylation ribozyme variant]
6. AAGUUUCCGAAUAGUCGCAAG [Fam3.1 aminoacylation ribozyme variant]

1. 3.97
2. 3.99
3. 20.3
4. 0.458
5. 1.89
6. 1.87

Could I get self-aminoacylation for every one of these entries?
1. AUUCACCCAGGUCAGCGGGUG [Fam2.2 aminoacylation ribozyme variant]
2. AUUCACCUAGGUCAACGGUUG [Fam2.2 aminoacylation ribozyme variant]
3. CCACAUUUGAAGCAAUCGGUC [Fam1B.1 aminoacylation ribozyme variant]
4. AUUCUCCUAGGUGAUCGGGUG [Fam2.2 aminoacylation ribozyme variant]
5. CUACUUCAAACGCUCGGUCUG [Fam1A.1 aminoacylation ribozyme variant]
6. CUACUUCAACCAAUCAGUCUG [Fam1A.1 aminoacylation ribozyme variant]

1. 4.34
2. 0.94
3. 0.886
4. 4.65
5. 0.637
6. 5.54

For every record below, what is its self-aminoacylation?
1. AAGUUUGCUAACAGUCACAAG [Fam3.1 aminoacylation ribozyme variant]
2. CCACAAUUCAAGCAAUCGGGC [Fam1B.1 aminoacylation ribozyme variant]
3. CUACUUCAAAAAAUCGGUCGG [Fam1A.1 aminoacylation ribozyme variant]

1. 1.06
2. 2.04
3. 5.6

Hi! Can you tell me self-aminoacylation for each of these sequences?
1. AAGUGUGCUAAUAGUCCCAAG [Fam3.1 aminoacylation ribozyme variant]
2. CUACUUCAACCAAUCGGACUG [Fam1A.1 aminoacylation ribozyme variant]

[2.02, 4.9]

Hey, quick one: what's self-aminoacylation for each of these?
1. CUAGUUCAAACGAUCGGUCUG [Fam1A.1 aminoacylation ribozyme variant]
2. CUACCUCAAACAAUCGGUCUG [Fam1A.1 aminoacylation ribozyme variant]
3. AUUCACUUAGGUCAUCGGGUC [Fam2.2 aminoacylation ribozyme variant]
4. AUUACCCUGGUCACGGAGUGA [Fam2.1 aminoacylation ribozyme variant]
5. AUUCACCUUGGUCAUCGGGUA [Fam2.2 aminoacylation ribozyme variant]
6. CAACUUCAUACAAUCGGUCUG [Fam1A.1 aminoacylation ribozyme variant]
7. AUUCCCCUAGGUCAUCGGGCG [Fam2.2 aminoacylation ribozyme variant]

1: 0.58; 2: 2.19; 3: 1.06; 4: 8.54; 5: 2.75; 6: 0.771; 7: 9.17

Required: self-aminoacylation, one value per sequence below.
1. AUUACCCUGGUCAGAGAGUGA [Fam2.1 aminoacylation ribozyme variant]
2. CUACUUCAAAAAAUCGGUCAG [Fam1A.1 aminoacylation ribozyme variant]
3. UAGCUUGCUAAUAGUCGCAAG [Fam3.1 aminoacylation ribozyme variant]
4. GCACACUUCAGGCAAUCGGUC [Fam1B.1 aminoacylation ribozyme variant]
5. CGACAUUUCAAGCAAUCGGUC [Fam1B.1 aminoacylation ribozyme variant]

1. 8.25
2. 1.82
3. 1.84
4. 2.39
5. 1.33
